- target system: 11β-hsd-1 enzyme (Homo sapiens, UniProt P28845)
- Sequence (P28845 whole entry, species assumed): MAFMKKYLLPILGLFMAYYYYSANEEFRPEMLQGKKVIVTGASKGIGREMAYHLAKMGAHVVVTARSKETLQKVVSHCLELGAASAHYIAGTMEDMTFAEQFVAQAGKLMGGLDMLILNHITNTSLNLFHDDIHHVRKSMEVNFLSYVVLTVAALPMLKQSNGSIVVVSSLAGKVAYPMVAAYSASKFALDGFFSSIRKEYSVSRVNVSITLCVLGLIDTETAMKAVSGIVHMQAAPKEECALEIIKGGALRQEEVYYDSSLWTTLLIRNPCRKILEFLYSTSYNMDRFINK
- assay info: biochemical
- cond: read-out: % Inh @ 0.1 μM
reported metric: inhibition at 0.1 µM (%)

- Cc1cc(N)cc(NS(=O)(=O)N2CCC(Oc3cccc(F)c3)CC2)c1 [Example 54]: 100
- CCc1cccc(NS(=O)(=O)N2CCC3(CCc4cc(Cl)ccc4O3)CC2)n1 [Example 63]: 40
- N#Cc1ccc(C2CCN(S(=O)(=O)Nc3ccc4ccccc4n3)CC2)nc1 [Example 38]: 100
- Cc1cccc(NS(=O)(=O)N2CC=C(c3ccc(C#N)cc3)CC2)n1 [Example 26]: 100
- CC(C)c1cccc(NS(=O)(=O)N2CCN(c3ccc(C#N)cn3)CC2)n1 [Example 32]: 97
- Cc1cc(N)nc(NS(=O)(=O)N2CCn3c(nc4cccc(C)c43)C2)c1 [Example 49]: 100
- Cc1cc(N)nc(NS(=O)(=O)N2CCn3c(nc4cc(C(F)(F)F)ccc43)C2)c1 [Example 47]: 100
- Cc1cccc(NS(=O)(=O)N2CCN(c3ncccc3C)CC2)n1 [Example 4]: 26.6
- CCc1cccc(NS(=O)(=O)N2CCC(c3ncccn3)CC2)n1 [Example 60]: 7

* * *

- target system: 11β-hsd-1 enzyme (Homo sapiens)
- assay info: biochemical
- cond: read-out: % Inh @ 0.1 μM
reported metric: inhibition at 0.1 µM (%)

• Cc1cc(N)nc(NS(=O)(=O)N2CCN(c3ccc(C#N)cn3)CC2)c1 = 100
• Cc1cccc(NS(=O)(=O)N2CCc3ccccc3CC2)n1 = 95.5
• Cc1cc(C)nc(NS(=O)(=O)N2CCN(c3ccc(C#N)cn3)[C@H](C)C2)c1 = 100
• N#Cc1ccc(C2CCN(S(=O)(=O)Nc3cccc(N)n3)CC2)nc1 = 91
• Cc1cc(N)nc(NS(=O)(=O)N2CCN(c3ncc(F)cn3)CC2)c1 = 100
• Cc1cccc(NS(=O)(=O)N2CCN(c3ccc(C(F)(F)F)cn3)CC2)n1 = 96.4
• CC(C)c1cccc(NS(=O)(=O)N2CCC(c3ccc(C#N)cn3)CC2)n1 = 100
• O=S(=O)(Nc1cccc(CCO)n1)N1CCc2ccccc2CC1 = 100
• Cc1cc(N)cc(NS(=O)(=O)N2CCC(Oc3ccccc3F)CC2)c1 = 100
• Cc1cccc(NS(=O)(=O)N2CCCN(c3ccc(C#N)cn3)CC2)n1 = 72
• CCc1cccc(NS(=O)(=O)N2CCC(c3c[nH]c4ccccc34)CC2)n1 = 62.6
• Cc1cc(C)nc(NS(=O)(=O)N2CCN(c3ccc(C#N)cn3)CC2)c1 = 86.5
• Cc1cccc(NS(=O)(=O)N2CCC(c3ccc(C#N)cn3)CC2)n1 = 100
• CCc1cccc(NS(=O)(=O)N2CCN(c3ccc(C#N)cn3)CC2)n1 = 88.5
• Cc1cccc(NS(=O)(=O)N2CCc3ccc(S(C)(=O)=O)cc3CC2)n1 = 79.9
• CC1CN(c2ccc(C#N)cn2)CCN1S(=O)(=O)Nc1cccc(CO)n1 (stereo not shown) = 94.2
• O=S(=O)(Nc1ccc2ncccc2n1)N1CCN(c2ccc(C(F)(F)F)cn2)CC1 = 100
• Cc1cc(N)cc(NS(=O)(=O)N2CCC(C(F)(F)F)CC2)c1 = 100
• CCc1cccc(NS(=O)(=O)N2C[C@@H]3C[C@H]2CN3c2ccccc2)n1 = 5.6
• CCc1cccc(NS(=O)(=O)N2CCC(c3ccc(F)cc3)CC2)n1 = 96.6
• O=S(=O)(Nc1ccc2ncccc2n1)N1CCC(c2ccc(C(F)(F)F)cn2)CC1 = 89
• CCc1cccc(NS(=O)(=O)N2CCC3(CC2)CC(=O)c2cc(Cl)ccc2O3)n1 = 4.7
• CCc1cccc(NS(=O)(=O)N2CCC3(CCc4ccccc4O3)CC2)n1 = 42.8
• Cc1cc(N)cc(NS(=O)(=O)N2CCC(Oc3ccccc3)CC2)c1 = 92
• C[C@@H]1CN(S(=O)(=O)Nc2cccc(CO)n2)CCN1c1ncc(F)cn1 = 100
• CCN(CC)C(=O)Cc1cccc(NS(=O)(=O)N2CCc3ccccc3CC2)n1 = 100
• Cc1cc(N)nc(NS(=O)(=O)N2CCn3cc(C(F)(F)F)nc3C2)c1 = 38
• CCc1cccc(NS(=O)(=O)N2CCC3(CCc4cc(C)ccc4O3)CC2)n1 = 5.4

* * *

Entries and their Ki values follow.
- target system: 11β-hsd-1 enzyme (Homo sapiens, UniProt P28845)
- assay info: biochemical
reported metric: Ki (nM)

- CCc1cccc(NS(=O)(=O)N2CCC(c3ccccc3F)CC2)n1: 16
- Cc1cccc(NS(=O)(=O)N2CCC(F)(c3ccc(C#N)cc3)CC2)n1: 63.5
- CCc1cccc(NS(=O)(=O)N2CC[C@@H]3CCCC[C@@H]3C2)n1 (racemic): 13
- CCc1cccc(NS(=O)(=O)N2CCCC(c3ccccc3)CC2)n1 (stereo not shown): 18
- O=S(=O)(Nc1ccc2ccccc2n1)N1CCCN(c2nc3cc(Cl)ccc3o2)CC1: 20
- CCCC1CCCCN1S(=O)(=O)Nc1cccc(CC)n1 (stereo not shown): 24
- N#Cc1ccc(C2CCN(S(=O)(=O)Nc3cccc(N)n3)CC2)nc1: 16
- CCc1cccc(NS(=O)(=O)N2CCC(c3ccccc3)CC2)n1: 3.5
- O=S(=O)(Nc1ccc2ccccc2n1)N1CCN(c2ccc(C(F)(F)F)cn2)CC1: 4.8
- CCc1cccc(NS(=O)(=O)N2CCC(C)CC2)n1: 45
- CCc1cccc(NS(=O)(=O)N2CCN(c3ncccc3C#N)CC2)n1: 33
- COCC1CCCN(S(=O)(=O)Nc2ccc3ccccc3n2)CC1 (stereo not shown): 63
- COc1ccc2oc(N3CCN(S(=O)(=O)Nc4cccc(C)n4)CC3)nc2c1: 9.9
- CCc1cccc(NS(=O)(=O)N2CCN(c3ccccn3)CC2)n1: 37
- O=S(=O)(Nc1ccc2ccccc2n1)N1CCOC(COc2cc(F)cc(F)c2)C1 (stereo not shown): 59
- O=C1CN(S(=O)(=O)Nc2ccc3ccccc3n2)CCN1C1CCCC1: 68
- Cc1cccc(NS(=O)(=O)N2CCCCCCC2)n1: 25
- O=S(=O)(Nc1ccc2ccccc2n1)N1CCN(c2ccccn2)CC1: 17
- Cc1cccc(NS(=O)(=O)N2CCc3ccccc3CC2)n1: 2.8

* * *

- target system: 11β-hsd-1 enzyme (Homo sapiens, UniProt P28845)
- assay info: biochemical
pKi: −log10 of the molar value.
reported metric: pKi

* CCc1cccc(NS(=O)(=O)N2CCCC(C)C2)n1 (centres unmarked) | 7.23
* N#Cc1ccc(N2CCN(S(=O)(=O)Nc3cccc(CO)n3)CC2)nc1 | 7.89
* Cc1cc(N)nc(NS(=O)(=O)N2CCN(c3ccc(C#N)cn3)CC2)c1 | 8.60
* CCc1cccc(NS(=O)(=O)N2CCN(c3ccc(C#N)cn3)CC2)n1 | 8.05
* CCc1cccc(NS(=O)(=O)N2CCC(CCc3ccccn3)CC2)n1 | 8.25

* * *

- target system: 11β-hsd-1 enzyme (Homo sapiens)
- assay info: biochemical
Cut-off 0.01 µM on Ki: below means 1, at or above means 0.

• CCc1cccc(NS(=O)(=O)N2CCN(c3ncccc3C(F)(F)F)CC2)n1 [Example 198] = 0
• O=S(=O)(Nc1ccc2ccccc2n1)N1CCCCCC1 [Example 157, N-quinolin-2-ylazepane-1-sulfonamide] = 0
• CCc1cccc(NS(=O)(=O)N2CCN(c3nc4ncccc4o3)CC2)n1 [Example 145] = 0
• CCc1cccc(NS(=O)(=O)N2CCCC(c3ccnc(N4CCOCC4)n3)C2)n1 (centres unmarked) [Example 71] = 0
• CCc1cccc(NS(=O)(=O)N2CCCC(COCC3CC3)CC2)n1 (centres unmarked) [Example 95] = 0
• CCOC(=O)N1CCN(S(=O)(=O)Nc2cccc(C)n2)CC1 [Example 129] = 0
• CCc1cccc(NS(=O)(=O)N2CCc3conc3CC2)n1 [Example 181] = 0
• CCc1cccc(NS(=O)(=O)N2CCN(c3ncc(C(F)(F)F)cc3Cl)CC2)n1 [Example 195] = 0
• O=S(=O)(Nc1ccc2ccccc2n1)N1CCN(c2nc3ncccc3o2)CC1 [Example 176] = 0
• CCc1cccc(NS(=O)(=O)N2CCCCCC2)n1 [Example 197] = 0
• Cc1cccc(NS(=O)(=O)N2CCCN(c3ncccc3C#N)CC2)n1 [Example 139] = 0
• CCc1cccc(NS(=O)(=O)N2CCc3c(Cl)cccc3C2)n1 [Example 190] = 1
• CCc1cccc(NS(=O)(=O)N2CCC(Oc3ccc(Cl)cc3)CC2)n1 [Example 112] = 0
• Cc1cc(Cl)cnc1N1CCN(S(=O)(=O)Nc2ccc3ncccc3n2)CC1 [Example 37] = 0
• CCc1cccc(NS(=O)(=O)N2CCCC(c3ccnc(N4CCCC4)n3)C2)n1 (centres unmarked) [Example 96] = 0
• O=C(OCc1ccccc1)N1CCCN(S(=O)(=O)Nc2ccc3ccccc3n2)CC1 [Example 164] = 0
• CCc1cccc(NS(=O)(=O)N2CCN(c3ncc(-c4ccc(OC)cc4)cn3)CC2)n1 [Example 144] = 1
• CCc1cccc(NS(=O)(=O)N2CCC(OCc3ccccc3)CC2)n1 [Example 91] = 0
• Cc1cc(N)nc(NS(=O)(=O)N2CCN(c3ncc(F)cn3)CC2)c1 [Example 31] = 0
• Cc1cccc(NS(=O)(=O)N2CCN(c3ncccc3C#N)CC2)n1 [Example 132] = 0
• CCc1cccc(NS(=O)(=O)N2CCN(c3nc4ccc(Cl)cc4o3)CC2)n1 [Example 186] = 1
• CCc1cccc(NS(=O)(=O)N2CCC(Cc3ccc(F)cc3)CC2)n1 [Example 124] = 1
• Cc1cccc(NS(=O)(=O)N2CCCN(c3ncccn3)CC2)n1 [Example 133] = 0
• COc1ccc2oc(N3CCN(S(=O)(=O)Nc4ccc5ccccc5n4)CC3)nc2c1 [Example 166] = 0
• CCc1cccc(NS(=O)(=O)N2CCc3nc(-c4ccccc4)nc(C(=O)NC)c3C2)n1 [Example 148] = 0
• O=S(=O)(Nc1cccc(CCO)n1)N1CCc2ccccc2CC1 [Example 16] = 1
• O=S(=O)(Nc1ccc2ccccc2n1)N1CCCCCCC1 [Example 155, N-quinolin-2-ylazocane-1-sulfonamide] = 1
• CCc1cccc(NS(=O)(=O)N2CCCC(COc3ccccc3F)C2)n1 (centres unmarked) [Example 114] = 0
• CCc1cccc(NS(=O)(=O)N2CCC(c3ccccc3OC)CC2)n1 [Example 119] = 0
• COc1ccc(-c2cnc(N3CCN(S(=O)(=O)Nc4cccc(C)n4)CC3)nc2)cc1 [Example 151] = 1
• Cc1cccc(NS(=O)(=O)N2CCCC(c3ccc(F)cc3)C2)n1 (centres unmarked) [Example 22] = 0
• CCc1cccc(NS(=O)(=O)N2CCc3ccc(S(C)(=O)=O)cc3CC2)n1 [Example 18] = 0
• Cc1cccc(NS(=O)(=O)N2CCN(c3ccc(C#N)cn3)[C@H](C)C2)n1 [Example 23] = 0
• N#Cc1ccc(N2CCN(S(=O)(=O)Nc3ccc4ccccc4n3)CC2)nc1 [Example 13] = 1

These measurements were taken from patent US20070027118A1.
